assay.system: calf brain benzodiazepine receptors (3H-Flunitrazepam binding, calf brain cortex)
method.description: Flunitrazepam Receptor Binding Assay, Chang et al. modification (FBA TEST No. 2)
experimental.context: read-out: IC50 in FBA test (inhibition of specific binding of 3H-Flunitrazepam)
metric.name: pIC50
Reminder that pIC50 means the negative base-10 logarithm of the concentration expressed in mol/L.

query: Record request: pIC50 value, item O=c1c2cc(C(F)(F)F)ccc2nc2n1CC1CCCCN21 (stereo not shown)
result: 8.19

---

method.description: Rotarod, Locomotion and Rearing Tests (indicative of sedation)
Type: in vivo
experimental.context: rat, locomotion, rearing tests, rats, one value stated for the three tests
Listing: ED50 of selected compounds

O=c1c2cc(C(F)(F)F)ccc2nc2n1C[C@H]1CCCCN21 ... > 120 mg/kg

API: the following record is the query input.
query: Record request: ED50 value, item "O=c1c2cc(C(F)(F)F)ccc2nc2n1C[C@@H]1CCCCN21"
result: 40 to 50 mg/kg

The values you see were collected from patent US4760065A.
